target: Disintegrin and metalloproteinase domain-containing protein 17 (Homo sapiens, UniProt P78536); assay: Inhibitory activity against Tumor necrosis factor alpha-converting enzyme (TACE) in blood.; type: tissue-based
Sequence (P78536 whole entry, the tested form may be a part): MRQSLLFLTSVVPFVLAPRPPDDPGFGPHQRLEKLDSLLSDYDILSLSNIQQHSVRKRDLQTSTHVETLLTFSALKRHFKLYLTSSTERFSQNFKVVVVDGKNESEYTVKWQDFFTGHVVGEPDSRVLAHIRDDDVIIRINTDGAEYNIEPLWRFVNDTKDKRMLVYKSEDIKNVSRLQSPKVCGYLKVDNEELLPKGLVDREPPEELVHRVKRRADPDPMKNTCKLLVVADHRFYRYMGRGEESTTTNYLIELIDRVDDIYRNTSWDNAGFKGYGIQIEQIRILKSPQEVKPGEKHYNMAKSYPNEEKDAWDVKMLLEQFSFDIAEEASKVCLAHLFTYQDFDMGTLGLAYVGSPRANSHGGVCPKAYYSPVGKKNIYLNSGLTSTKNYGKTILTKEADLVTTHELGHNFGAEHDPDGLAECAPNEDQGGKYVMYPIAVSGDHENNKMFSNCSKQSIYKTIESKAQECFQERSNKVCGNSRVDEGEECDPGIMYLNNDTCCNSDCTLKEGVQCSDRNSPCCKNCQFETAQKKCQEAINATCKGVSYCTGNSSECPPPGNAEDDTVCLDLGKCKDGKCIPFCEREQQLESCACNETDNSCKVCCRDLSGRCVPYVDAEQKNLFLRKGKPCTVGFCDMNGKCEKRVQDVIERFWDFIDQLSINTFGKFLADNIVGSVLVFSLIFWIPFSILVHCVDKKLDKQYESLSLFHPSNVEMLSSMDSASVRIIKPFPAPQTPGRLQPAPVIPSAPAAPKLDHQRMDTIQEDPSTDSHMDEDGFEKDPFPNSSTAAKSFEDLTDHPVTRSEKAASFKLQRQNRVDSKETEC
We label by threshold. Values of IC50 strictly beneath 0.6 nM are condition met. Values of 0.6 nM and up are condition not met.

molecule: CNC(=O)[C@@H](NC(=O)[C@H](CC(C)C)[C@H](SC)C(=O)NO)C(C)(C)C
assignedCategory: condition not met
--
molecule: CNC(=O)[C@@H](NC(=O)[C@H](CC(C)C)[C@H](NCc1cccc2cccnc12)C(=O)NO)C(C)(C)C
assignedCategory: condition met
--
molecule: CNC(=O)[C@@H](NC(=O)[C@H](CC(C)C)[C@H](OCCc1ccc2sc(C)nc2c1)C(=O)NO)C(C)(C)C
assignedCategory: condition met
--
molecule: CNC(=O)[C@@H](NC(=O)[C@H](CC(C)C)[C@H](NS(=O)(=O)c1ccc2c(c1)CCC(=O)N2C)C(=O)NO)C(C)(C)C
assignedCategory: condition not met
--
molecule: CNC(=O)[C@@H](NC(=O)C(CC(C)C)C(C(=O)NO)C1CCCC1)C(C)(C)C (single isomer, unassigned)
assignedCategory: condition not met
--
molecule: CNC(=O)[C@@H](NC(=O)[C@H](CC(C)C)[C@H](NS(=O)(=O)c1cccc2ccccc12)C(=O)NO)C(C)(C)C
assignedCategory: condition not met
--
molecule: CNC(=O)[C@@H](NC(=O)[C@H](CC(C)C)[C@@H](Sc1ccccc1)C(=O)NO)C(C)(C)C
assignedCategory: condition not met
--
molecule: CNC(=O)[C@@H](NC(=O)[C@H](CC(C)C)[C@H](OCc1cc2ccccc2n(C)c1=O)C(=O)NO)C(C)(C)C
assignedCategory: condition met
--
molecule: CNC(=O)[C@@H](NC(=O)C(CC(C)C)C(NS(=O)(=O)c1ccc(NC(C)=O)cc1)C(=O)NO)C(C)(C)C (single isomer, unassigned)
assignedCategory: condition not met
--
molecule: CNC(=O)[C@@H](NC(=O)C(CC(C)C)C(NS(=O)(=O)c1ccc(Br)cc1)C(=O)NO)C(C)(C)C (single isomer, unassigned)
assignedCategory: condition not met
--
molecule: CNC(=O)[C@@H](NC(=O)[C@H](CC(C)C)[C@H](OCc1cccc2nccnc12)C(=O)NO)C(C)(C)C
assignedCategory: condition not met
--
molecule: CNC(=O)[C@@H](NC(=O)C(CC(C)C)C(NS(=O)(=O)c1ccccc1)C(=O)NO)C(C)(C)C (single isomer, unassigned)
assignedCategory: condition not met
--
molecule: CNC(=O)[C@@H](NC(=O)[C@H](CC(C)C)[C@H](NS(=O)(=O)c1cccc2c(=O)[nH]cnc12)C(=O)NO)C(C)(C)C
assignedCategory: condition not met
--
molecule: CNC(=O)[C@@H](NC(=O)[C@H](CC(C)C)[C@H](NS(=O)(=O)c1ccc2ncnc(O)c2c1)C(=O)NO)C(C)(C)C
assignedCategory: condition met
